- target_or_test_system: recombinant guanylate cyclase reporter cell line (Rattus norvegicus, UniProt P19686+P20595)
- Construct: expressed in transfected cells
- Sequence (P20595 1-619): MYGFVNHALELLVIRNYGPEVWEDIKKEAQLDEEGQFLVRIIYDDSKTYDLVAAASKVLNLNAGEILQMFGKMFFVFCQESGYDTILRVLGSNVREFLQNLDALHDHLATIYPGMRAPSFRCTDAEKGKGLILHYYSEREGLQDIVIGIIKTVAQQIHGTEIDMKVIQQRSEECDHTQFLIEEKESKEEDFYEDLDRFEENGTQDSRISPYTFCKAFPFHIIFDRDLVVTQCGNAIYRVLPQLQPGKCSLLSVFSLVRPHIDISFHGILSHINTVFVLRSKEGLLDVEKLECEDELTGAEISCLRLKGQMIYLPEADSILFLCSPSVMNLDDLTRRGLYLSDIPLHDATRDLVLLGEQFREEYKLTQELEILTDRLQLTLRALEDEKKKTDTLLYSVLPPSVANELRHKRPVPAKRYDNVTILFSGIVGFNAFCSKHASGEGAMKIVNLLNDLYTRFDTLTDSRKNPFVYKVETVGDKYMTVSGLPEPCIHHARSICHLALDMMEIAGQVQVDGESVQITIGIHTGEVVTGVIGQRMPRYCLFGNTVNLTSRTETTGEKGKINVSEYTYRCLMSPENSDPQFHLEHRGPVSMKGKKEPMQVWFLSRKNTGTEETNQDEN
- Sequence (P19686 1-690): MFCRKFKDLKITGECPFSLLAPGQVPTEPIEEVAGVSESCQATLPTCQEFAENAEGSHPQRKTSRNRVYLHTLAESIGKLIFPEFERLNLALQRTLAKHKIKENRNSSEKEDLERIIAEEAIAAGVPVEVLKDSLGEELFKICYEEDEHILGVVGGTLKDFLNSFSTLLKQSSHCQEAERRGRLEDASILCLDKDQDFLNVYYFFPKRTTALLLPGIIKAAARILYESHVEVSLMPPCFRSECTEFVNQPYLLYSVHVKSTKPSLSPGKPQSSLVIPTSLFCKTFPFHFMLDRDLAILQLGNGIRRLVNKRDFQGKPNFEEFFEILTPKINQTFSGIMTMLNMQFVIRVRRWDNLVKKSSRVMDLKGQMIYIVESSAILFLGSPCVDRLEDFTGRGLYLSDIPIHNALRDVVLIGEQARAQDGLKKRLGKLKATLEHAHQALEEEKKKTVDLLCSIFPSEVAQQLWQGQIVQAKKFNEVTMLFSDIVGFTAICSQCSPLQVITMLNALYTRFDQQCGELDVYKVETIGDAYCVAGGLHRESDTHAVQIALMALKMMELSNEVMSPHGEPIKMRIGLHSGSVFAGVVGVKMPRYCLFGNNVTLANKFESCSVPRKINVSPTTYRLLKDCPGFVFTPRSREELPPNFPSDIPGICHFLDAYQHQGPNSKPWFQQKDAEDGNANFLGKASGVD
- method_notes: B-2. Action on recombinant guanylate cyclase reporter cell line
- Type: cell-based
- run_parameters: MEC = minimal effective concentration; in some cases mean values from individual determinations
observed_property: MEC (µM)
Enter your answer as a number in µM; do not include the unit.

Known MEC results, listed for orientation:
Just so you know, measured MEC for CSCCC(N)CNC(=O)c1c(C)nc2c(OCc3c(F)cccc3F)cc(C)cn12 (racemic) [Example 412] came out at 0.10

Reported MEC of Cc1cc(OCc2c(F)ccc(F)c2F)c2nc(C)c(C(=O)NCC(C)(N)CCC(F)(F)F)n2c1 (single isomer, unassigned; enantiomer b) [Example 411] : 0.03

Reported MEC for COCC(CN)NC(=O)c1c(C)nc2c(OCc3c(F)cccc3F)cccn12 (single isomer, unassigned) [Example 122] was 1.00

Entry COC(=O)[C@@H](N)CCCCNC(=O)c1c(C)nc2c(OCc3c(F)cccc3F)cc(C)cn12 [Example 294] , MEC reported as 0.065

Reported MEC for Cc1nc2c(OCc3c(F)cccc3F)cccn2c1C(=O)NCC(N)C(F)(F)C(F)F (single isomer, unassigned) [Example 231] was 0.30

--- query ---
// MEC value for Cc1cc(OCc2c(F)ccc(F)c2F)c2nc(C)c(C(=O)NCC(C)(N)CF)n2c1 (single isomer, unassigned; enantiomer b) [Example 286] : 0.1

Provenance of the data: patent US9624214B2
